We begin with pIC50 values for Cathepsin S (Homo sapiens, UniProt P25774), as collected from the published literature.
pIC50: −log10 of the molar value.
experimental_readout: pIC50

compound=N#CC1(NC(=O)[C@@H]2C[C@@H](S(=O)(=O)c3ccccc3)C[C@H]2C(=O)Nc2ccc(F)cc2)CC1 value_modifier== recorded_measurement=7.59
compound=C[C@@]1(NC(=O)[C@H](CC2CCCCC2)NC(=O)CCCCCNC(=NC(=O)OCc2ccccc2)NC(=O)OCc2ccccc2)C(=O)N[C@H]1Oc1ccccc1 value_modifier== recorded_measurement=7.70
compound=COC(=O)N1CCN(C2(C(=O)N3C[C@H](S(=O)(=O)c4ccccc4Cl)C[C@H]3C(=O)NC3(C#N)CC3)CC2)CC1 value_modifier== recorded_measurement=8.59
compound=N#CC1(NC(=O)[C@@H]2C[C@@H](S(=O)(=O)c3ccccc3Cl)CN2C(=O)C2(c3ccc(Cl)cn3)CC2)CC1 value_modifier== recorded_measurement=9.31
compound=N#CC1(NC(=O)[C@@H]2C[C@@H](S(=O)(=O)c3ccc(N4CC5(COC5)C4)cc3C(F)(F)F)C[C@H]2C(=O)N2CC(F)(F)C2)CC1 value_modifier== recorded_measurement=9.30
compound=N#CC1(NC(=O)C2(NC(=O)c3cc4ccc(-c5ccc(C6(O)CCS(=O)(=O)CC6)cc5)cc4o3)CCCCC2)CC1 value_modifier== recorded_measurement=6.47
compound="CCOC(=O)N1CCC(C#N)(NC(=O)[C@@H]2C[C@@H](S(=O)(=O)c3ccc(Cl)cc3Cl)C[C@H]2OCc2ccc(Cl)cc2)CC1 (racemic)" value_modifier== recorded_measurement=7.04
compound=CC[C@H](NC(=O)[C@@H]1C[C@@H](S(=O)(=O)c2ccccc2Cl)CN1C(=O)C1(c2ccc(Cl)cc2)CC1)C(=O)C(=O)NCCc1ccccc1 value_modifier== recorded_measurement=9.05
compound=N#CC1(NC(=O)C2(NC(=O)c3cc4ccc(-c5ccc6c(c5)OCO6)cc4o3)CCC(F)(F)CC2)CC1 value_modifier=< recorded_measurement=5.00
compound=N#CC1(NC(=O)[C@@H]2C[C@@H](S(=O)(=O)c3ccc(-n4nccn4)cc3Cl)CN2C(=O)C2(C(F)(F)F)CC2)CC1 value_modifier== recorded_measurement=9.25
compound="CO[C@H]1C[C@@H](S(=O)(=O)c2ccc(-n3cc(CCO)nn3)cc2C(F)(F)F)C[C@@H]1C(=O)NC1(C#N)CC1 (racemic)" value_modifier== recorded_measurement=9.17
compound="COc1ccc(S(=O)(=O)[C@H]2C[C@@H](OC)[C@H](C(=O)NC3(C#N)CC3)C2)c(Cl)c1 (racemic)" value_modifier== recorded_measurement=8.13
compound="N#CC1(NC(=O)[C@@H]2C[C@@H](S(=O)(=O)c3ccc(Cl)cc3Cl)C[C@H]2OCc2ccc(Cl)cc2)CC1 (racemic)" value_modifier== recorded_measurement=7.98
